- Test system: ER-alpha MCF7
- Measurement description: ER-alpha MCF7 HCS EC50; stated as measured by in vitro cell proliferation assays of Examples 902 and 903
- Assay type: cell-based
- Condition info: Homo sapiens, MCF7, MCF7 cells; Table 2
pEC50: −log10 of the molar value.
Please use TRUE whenever pEC50 is not below 9, and FALSE whenever it is.

Check this molecule for pEC50 at or above 9: `C[C@@H]1Cc2c([nH]c3ccc(F)cc23)[C@@H](c2c(F)cc(NC3CN(CCCF)C3)cc2F)N1CC(F)(F)F`
TRUE

`C[C@@H]1Cc2c([nH]c3ccccc23)[C@@H](c2c(F)cc(OCCN3CC(CF)C3)cc2F)N1C(=O)C1CSC1` , same question.
FALSE

Same lookup for `C[C@@H]1Cc2c([nH]c3ccccc23)[C@@H](c2c(F)cc(OCCN3CC(F)(CF)C3)cc2F)N1CC(C)(C)F` , please.
TRUE

Can you handle `CC(C)CCN1CC(Oc2cc(F)c([C@@H]3c4[nH]c5ccccc5c4C[C@@H](C)N3CC(C)(C)F)c(F)c2)C1` next?
FALSE
